meta.source: patent US20140329752A1

Listing: IC50 nM (calcium flux, inhibition of stimulation by 32 nM α-CGRP) of selected binders
assayed-system: amylin receptor AMY1, a CT (calcitonin) receptor/RAMP1 (receptor-activity modifying protein) complex (UniProt P30988 25-474; O60894 27-148, limits assumed)
Sequence (P30988 25-474 limits assumed, chain 1 of 2): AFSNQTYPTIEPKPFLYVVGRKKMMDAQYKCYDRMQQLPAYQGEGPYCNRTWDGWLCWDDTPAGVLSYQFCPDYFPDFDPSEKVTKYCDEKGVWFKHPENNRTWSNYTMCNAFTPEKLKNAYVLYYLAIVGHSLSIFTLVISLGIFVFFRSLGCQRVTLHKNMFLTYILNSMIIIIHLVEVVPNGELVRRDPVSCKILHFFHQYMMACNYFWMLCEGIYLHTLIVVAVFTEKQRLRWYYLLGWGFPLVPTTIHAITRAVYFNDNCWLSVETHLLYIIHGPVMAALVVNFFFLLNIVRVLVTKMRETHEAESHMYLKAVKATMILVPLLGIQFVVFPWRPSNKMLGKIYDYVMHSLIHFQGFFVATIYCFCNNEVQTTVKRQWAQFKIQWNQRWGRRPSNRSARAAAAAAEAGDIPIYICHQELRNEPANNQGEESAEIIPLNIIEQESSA
Sequence (O60894 27-148 limits assumed, chain 2 of 2): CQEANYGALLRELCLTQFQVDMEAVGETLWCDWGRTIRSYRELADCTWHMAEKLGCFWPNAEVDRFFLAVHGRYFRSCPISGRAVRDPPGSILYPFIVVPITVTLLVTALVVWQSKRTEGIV
method-summary: cell-based or functional assay
Ends that are not written are not given here.
recorded-endpoint: IC50 nM (calcium flux, inhibition of stimulation by 32 nM α-CGRP) (nM)

| binder | recorded-value |
| --- | --- |
| H-ACDTAACVLGRLSQELHRLQTYPRTNVGSKAF-NH2 (not fully specified (bridges); printed as NH2-Ala-Cys-Asp-Thr-Ala-Ala-Cys-Val-Leu-Gly-Arg-Leu-Ser-Gln-Glu-Leu-His-Arg-Leu-Gln-Thr-Tyr-Pro-Arg-Thr-Asn-Val-Gly-Ser-Lys-Ala-Phe-NH2; cysteine pairing not given here) [modified calcitonin gene-related peptide antagonist of SEQ ID NO: 1] | 17 |
| H-ACNLSACVLGRLSQELHRLQTYPTNTGSGTP-NH2 (not fully specified (bridges); printed as NH2-Ala-Cys-Asn-Leu-Ser-Ala-Cys-Val-Leu-Gly-Arg-Leu-Ser-Gln-Glu-Leu-His-Arg-Leu-Gln-Thr-Tyr-Pro-Thr-Asn-Thr-Gly-Ser-Gly-Thr-Pro-NH2; cysteine pairing not given here) [modified calcitonin gene-related peptide antagonist of SEQ ID NO: 13] | 4 |
| H-ACDTAVCVLGRLSQELHRLQTYPRTNVGSKAF-NH2 (not fully specified (bridges); printed as NH2-Ala-Cys-Asp-Thr-Ala-Val-Cys-Val-Leu-Gly-Arg-Leu-Ser-Gln-Glu-Leu-His-Arg-Leu-Gln-Thr-Tyr-Pro-Arg-Thr-Asn-Val-Gly-Ser-Lys-Ala-Phe-NH2; cysteine pairing not given here) [modified calcitonin gene-related peptide antagonist of SEQ ID NO: 3] | 4 |
| H-ACDTAICVLGRLSQELHRLQTYPRTNVGSKAF-NH2 (not fully specified (bridges); printed as NH2-Ala-Cys-Asp-Thr-Ala-Ile-Cys-Val-Leu-Gly-Arg-Leu-Ser-Gln-Glu-Leu-His-Arg-Leu-Gln-Thr-Tyr-Pro-Arg-Thr-Asn-Val-Gly-Ser-Lys-Ala-Phe-NH2; cysteine pairing not given here) [modified calcitonin gene-related peptide antagonist of SEQ ID NO: 10] | 9 |
| H-ACNLSACVLGRLSQELHRLQTYPRTNVGSKAF-NH2 (not fully specified (bridges); printed as NH2-Ala-Cys-Asn-Leu-Ser-Ala-Cys-Val-Leu-Gly-Arg-Leu-Ser-Gln-Glu-Leu-His-Arg-Leu-Gln-Thr-Tyr-Pro-Arg-Thr-Asn-Val-Gly-Ser-Lys-Ala-Phe-NH2; cysteine pairing not given here) [modified calcitonin gene-related peptide antagonist of SEQ ID NO: 7] | 8 |
| H-CSNTAACVLGRLSQELHRLQTYPRTNVGSKAF-NH2 (not fully specified (bridges); printed as NH2-Cys-Ser-Asn-Thr-Ala-Ala-Cys-Val-Leu-Gly-Arg-Leu-Ser-Gln-Glu-Leu-His-Arg-Leu-Gln-Thr-Tyr-Pro-Arg-Thr-Asn-Val-Gly-Ser-Lys-Ala-Phe-NH2; cysteine pairing not given here) [modified calcitonin gene-related peptide antagonist of SEQ ID NO: 8] | 16 |
| ACDTAACVTHRLAGLLSRSGGVVKNNFVPTNVGSKAF-NH2 (not fully specified (bridges); printed as Ala-Cys-Asp-Thr-Ala-Ala-Cys-Val-Thr-His-Arg-Leu-Ala-Gly-Leu-Leu-Ser-Arg-Ser-Gly-Gly-Val-Val-Lys-Asn-Asn-Phe-Val-Pro-Thr-Asn-Val-Gly-Ser-Lys-Ala-Phe-NH2; cysteine pairing not given here) [modified calcitonin gene-related peptide antagonist of SEQ ID NO: 15] | 1240 |
| H-ACDTALCVLGRLSQELHRLQTYPRTNVGSKAF-NH2 (not fully specified (bridges); printed as NH2-Ala-Cys-Asp-Thr-Ala-Leu-Cys-Val-Leu-Gly-Arg-Leu-Ser-Gln-Glu-Leu-His-Arg-Leu-Gln-Thr-Tyr-Pro-Arg-Thr-Asn-Val-Gly-Ser-Lys-Ala-Phe-NH2; cysteine pairing not given here) [modified calcitonin gene-related peptide antagonist of SEQ ID NO: 9] | 9 |
| H-ACDTASCVLGRLSQELHRLQTYPRTNVGSKAF-NH2 (not fully specified (bridges); printed as NH2-Ala-Cys-Asp-Thr-Ala-Ser-Cys-Val-Leu-Gly-Arg-Leu-Ser-Gln-Glu-Leu-His-Arg-Leu-Gln-Thr-Tyr-Pro-Arg-Thr-Asn-Val-Gly-Ser-Lys-Ala-Phe-NH2; cysteine pairing not given here) [modified calcitonin gene-related peptide antagonist of SEQ ID NO: 2] | 5 |
